pKd values for Dual specificity protein kinase CLK4 (Homo sapiens, UniProt Q9HAZ1) compiled from several publications are listed below.
pKd: −log10 of the molar value.
Observable: pKd

Molecule	Subject of test	pKd
CN(C)c1nccc(-c2cnn3ncccc23)n1	Dual specificity protein kinase CLK4 (Homo sapiens, UniProt Q9HAZ1)	7.21

P. Cn1cc(C2=C(c3cccc(NCC(O)CO)c3)C(=O)NC2=O)c2cc(F)ccc21 (racemic)
Q. CCN1CCN(Cc2ccc(Nc3ncc(F)c(-c4cc(F)c5nc(C)n(C(C)C)c5c4)n3)nc2)CC1
(Q) Could you point out whether the larger pKd belongs to P or to Q ? # answer = label of selected item
(A) Q
(Q: 7.89, P: 6.96)
